system: Human papillomavirus type 1a protein E7 (residues 44-93); experiment: HPV1a E7 fragment binders on microarrays, primary screen, biochemical, small-molecule microarray, residues 44-93, 635 nm fluorescence (AID 1108); details: small-molecule microarray binding, fluorescence 635 nm; higher = more signal;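 further: E7 fragment applied at 1 µg/mL in TBST for 1 h at 4 C; score combines spot fluorescence with its signal to noise ratio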
Assign class by composite z-score: not lower than 1 means T; lower than 1 means F.

API: above_or_equal(metric=composite z-score, cutoff=1) for item CC(CO)N1C(=O)[C@@H]2[C@H]3C(=O)OCC=C[C@H]3OC23C=CCN(c2ccc4ccccc4c2)C(=O)[C@@H]13 (some centres not stated)
F

API: above_or_equal(metric=composite z-score, cutoff=1) for item COc1ccc(C#Cc2ccc3c(c2)[C@]2(C(=O)N3)[C@H](c3ccccc3OCCO)N3[C@H](c4ccccc4)[C@H](c4ccccc4)OC(=O)[C@H]3[C@@H]2C(=O)NC[C@H](O)c2ccccc2)cc1
T

API: above_or_equal(metric=composite z-score, cutoff=1) for item C=C(COC)/C(=C/C[C@@H](OC(=O)c1ccncc1)c1ccccc1OCCO)c1cnc2ccccc2c1
T

API: above_or_equal(metric=composite z-score, cutoff=1) for item O=C1O[C@H](c2ccccc2)[C@H](c2ccccc2)N2[C@H]1[C@@H](C(=O)O)[C@]1(C(=O)Nc3ccc(C#CC4(O)CCCCCC4)cc31)[C@H]2c1ccccc1OCCO
T

API: above_or_equal(metric=composite z-score, cutoff=1) for item COCCOC(=O)N1C(=O)[C@@]2(c3cc(C#CCNC(N)=O)ccc31)[C@H](c1ccc(O)cc1)N1[C@H](c3ccccc3)[C@H](c3ccccc3)OC(=O)[C@H]1[C@@H]2C(=O)N1CCc2cc(OC)c(OC)cc2C1
T

API: above_or_equal(metric=composite z-score, cutoff=1) for item COC(=O)[C@@]1(Cc2ccc(OC)cc2)[C@H]2c3cc(C(=O)N(C)C)n(Cc4c(CO)[nH]cc(C)c4=O)c3C[C@H]2CN1C(=O)c1ccccc1
F

API: above_or_equal(metric=composite z-score, cutoff=1) for item CCCCCN1CC=CC23O[C@@H]4/C=C\CCCOC(=O)C4[C@H]2C(=O)N(CCCCCO)[C@@H]3C1=O (some centres not stated)
F

API: above_or_equal(metric=composite z-score, cutoff=1) for item C=C1C(=O)C=C2CN(C(=O)c3ccccc3)[C@@](Cc3ccc(F)cc3)(C(=O)OC)[C@@H]12
T

API: above_or_equal(metric=composite z-score, cutoff=1) for item Cc1ccc(S(=O)(=O)N2[C@@H](c3ccccc3)C(C(=O)O)=C[C@H]2C(C)(C)C)cc1
T

API: above_or_equal(metric=composite z-score, cutoff=1) for item C=CCNC(=O)[C@@H]1[C@H]2C(=O)O[C@H](c3ccccc3)[C@H](c3ccccc3)N2[C@H](c2ccc(O)cc2)[C@@]12C(=O)Nc1ccc(C#CC3=CCCCC3)cc12
T

API: above_or_equal(metric=composite z-score, cutoff=1) for item CC[C@H]1C2=C3C(CC[C@H]4C(OCc5ccc(F)cc5C(F)(F)F)OC[C@](C)([C@@H]34)N(C(=O)OC(C)(C)C)C2)C(COC(C)=O)C1COC(C)=O (some centres not stated)
T

API: above_or_equal(metric=composite z-score, cutoff=1) for item CCOC(=O)C[C@H]1[C@H](OC(=O)c2cc3ccccc3oc2=O)[C@@H](NC(=O)c2ccc(-c3ccccc3)cc2)c2cc(OCCCO)ccc2N1C(=O)Cc1ccc(OC)cc1
F

// data source = PubChem BioAssay
